molecular target: human CD3 (human) (UniProt P07766); assay: cell-based or functional assay
Sequence (P07766 23-207): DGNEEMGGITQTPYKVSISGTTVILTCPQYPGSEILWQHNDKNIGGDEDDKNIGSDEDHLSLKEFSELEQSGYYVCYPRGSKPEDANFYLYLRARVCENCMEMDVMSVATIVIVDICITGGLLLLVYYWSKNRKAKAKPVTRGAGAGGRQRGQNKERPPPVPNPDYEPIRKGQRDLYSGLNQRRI
outcomeMeasure: Apo-One Apoptosis Assay, 12.5 ng/ml
Please give only the number in your answer, with no unit.

Using the record for anti-CD3 HuFR antibody 3 (heavy chain BD20611, light chain BD21132) (antibody, part only; not given: Heavy stretch before framework 4, V domains shown, part only) VH, part: QVQLVESGAEVKKPGASVKVSCKASGYTFTRYTMHWVRQAPGKGLEWMGYINPSRGYTNYNQKFKDRLTISKDTSKNQVVLTMTNMDPVDTATYYCARYYDDHYCLDYVTVSSASTKGPS VL: EIVLTQSPATLSLSPGERATLSCSASSSVSYMNWYQQKPGKAPKLLIYDTSKLASGVPSRFSGSGSGTEFTLTISSLQPDDFATYYCQQWSSNPFTFGQGTKVEIKFGQGTKVEIKR , state its measured Apo-One Apoptosis Assay, 12.5 ng/ml. 649

Using the record for anti-CD3 HuFR antibody 8 (heavy chain BD20611, light chain BD21137) (antibody, part only; not given: few VH framework 4 residues, V domains shown, part only) VH, part: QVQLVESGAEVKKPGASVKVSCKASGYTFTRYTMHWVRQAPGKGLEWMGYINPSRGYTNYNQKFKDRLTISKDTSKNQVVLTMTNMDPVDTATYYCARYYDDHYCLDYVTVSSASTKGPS VL: DIQMTQSPSTLSASVGDRVTITCSASSSVSYMNWYQQKPGQPPKLLIYDTSKLASGVPSRFSGSGSGTDFTFTISSLQPEDIATYYCQQWSSNPFTFGQGTKVEIKFGQGTKVEIKR , state its measured Apo-One Apoptosis Assay, 12.5 ng/ml. 969

Using the record for anti-CD3 HuFR antibody 4 (heavy chain BD20611, light chain BD21133) (antibody, part only; not given: Heavy stretch before framework 4, V domains shown, part only) VH, part: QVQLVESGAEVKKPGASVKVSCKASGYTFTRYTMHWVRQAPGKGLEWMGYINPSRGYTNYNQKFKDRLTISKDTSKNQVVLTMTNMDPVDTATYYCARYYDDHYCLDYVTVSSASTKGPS VL: DIVMTQSPLSLPVTPGEPASISCSASSSVSYMNWYQQKPGQPPKLLIYDTSKLASGVPSRFSGSGSGTEFTLTISSLQPDDFATYYCQQWSSNPFTFGQGTKVEIKFGQGTKVEIKR , state its measured Apo-One Apoptosis Assay, 12.5 ng/ml. 1390

Using the record for anti-CD3 HuFR antibody 7 (heavy chain BD20611, light chain BD21136) (antibody, part only; not given: Heavy stretch before framework 4, V domains shown, part only) VH, part: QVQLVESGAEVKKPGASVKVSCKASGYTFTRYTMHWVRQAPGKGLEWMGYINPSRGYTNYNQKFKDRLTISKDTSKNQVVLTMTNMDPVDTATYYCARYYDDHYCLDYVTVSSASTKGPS VL: DIQMTQSPSTLSASVGDRVTITCSASSSVSYMNWYQQKPGKAPKLLIYDTSKLASGIPDRFSGSGSGTDFTLTISRLEPEDFAVYYCQQWSSNPFTFGQGTKVEIKFGQGTKVEIKR , state its measured Apo-One Apoptosis Assay, 12.5 ng/ml. 2270

Using the record for anti-CD3 HuFR antibody 2 (heavy chain BD20613, light chain BD21131) (antibody, part only; not given: few VH framework 4 residues, V domains shown, part only) VH, part: QVQLQESGPGLVKPSETLSLTCAVSGYTFTRYTMHWVRQAPGKGLEWVGYINPSRGYTNYNQKFKDRFTISRDDSKNTAYLQMNSLKTEDTAVYYCTRYYDDHYCLDYVTVSSASTKGPS VL: DIQMTQSPSTLSASVGDRVTITCSASSSVSYMNWYQQKPGQAPRLLIYDTSKLASGVPDRFSGSGSGTDFTLKISRVEAEDVGVYYCQQWSSNPFTFGQGTKVEIKFGQGTKVEIKR , state its measured Apo-One Apoptosis Assay, 12.5 ng/ml. 854

Source of measurements: patent US20090285813A1
